tested on: hPMBC; experiment: Chymotrypsin-like ProteasomeGlo assay in hPBMC; assay type: cell-based; settings: Homo sapiens; read-out: Pglo hPBMC
PROPERTY MEASURED: IC50

1. CC(=O)N[C@H]1CC(=O)N2CCCC(CCOc3ccc(C)c(c3)CNC(=O)C(c3cnn(Cc4ccccc4)c3)NC1=O)C2 (stereo partly drawn) :: 100 to 500 nM
2. CC(=O)N[C@H]1CC(=O)N2CCCC(CCOc3ccc(F)c(c3)CNC(=O)[C@H](CCc3ccccc3)NC1=O)C2 (stereo partly drawn) :: < 100 nM
3. Cc1ccc2cc1CNC(=O)[C@H](CCc1ccccc1)NC(=O)[C@@H](NC(=O)OCc1ccccc1)CCCC(=O)NCCCCO2 :: 500 to 1000 nM
4. Cc1ccc2cc1CNC(=O)[C@H](CCc1ccccc1)NC(=O)[C@@H](NC(=O)C1(N)CCOC1)CC(=O)N1CCCC(CCO2)C1 (stereo partly drawn) :: < 100 nM
5. Cc1ccc2cc1CNC(=O)[C@H](CCc1ccccc1)NC(=O)[C@@H](NC(=O)C1CCC(C(F)(F)F)N1)CC(=O)N1CCCC(CCO2)C1 (stereo partly drawn) :: < 100 nM
6. Cc1nc(C2NC(=O)[C@@H](NC(=O)OCc3ccccc3)CC(=O)N3CCCC(CCOc4ccc(C)c(c4)CNC2=O)C3)co1 (stereo partly drawn) :: < 100 nM

* * *

tested on: HT-29 cells; experiment: CellTiter-Glo luminescent cell viability assay with HT-29 cells (72h incubation); assay type: cell-based, human; details: Homo sapiens, HT-29, HT29 cells, read-out: CTG HT29
pIC50: −log10 of the molar value.
PROPERTY MEASURED: pIC50

1. Cc1ccc2cc1CNC(=O)[C@H](CCc1ccccc1)NC(=O)CCCCCC(=O)N1CCCC(CCO2)C1 (stereo partly drawn) :: 5.30 to 6.00
2. CC(=O)N[C@H]1CC(=O)NCCCCOc2ccc(C)c(c2)CNC(=O)[C@H](CCc2ccccc2)NC1=O :: 6.30 to 7.00
3. Cc1ccc2cc1CNC(=O)[C@H](CCc1ccccc1)NC(=O)[C@@H](NS(=O)(=O)Cc1ccccc1)CC(=O)N1CCCC(CCO2)C1 (stereo partly drawn) :: > 7.00
4. CC(=O)N[C@H]1CC(=O)N2CCCC(CCOc3ccc(C)c(c3)CNC(=O)C(c3cnn(CCCC(=O)O)c3)NC1=O)C2 (stereo partly drawn) :: 6.30 to 7.00
5. Cc1ccc2cc1CNC(=O)[C@H](CCc1ccccc1)NC(=O)[C@@H](NC(=O)c1cccnc1)CC(=O)N1CCCC(CCO2)C1 (stereo partly drawn) :: > 7.00
6. Cc1ccc2cc1CNC(=O)[C@H](CCc1ccccc1)NC(=O)[C@@H](NC(=O)CCc1ccc(-c3ccccc3)cc1)CC(=O)N1CCCC(CCO2)C1 (stereo partly drawn) :: > 7.00

* * *

tested on: hPMBC; assay: Chymotrypsin-like ProteasomeGlo assay in hPBMC; format: cell-based; settings: Homo sapiens; read-out: Pglo hPBMC
PROPERTY MEASURED: IC50

1) Cc1ccc2cc1CNC(=O)C(CCc1cnc3nccnc3c1)NC(=O)[C@@H](NC(=O)OCc1ccccc1)CC(=O)N1CCCC(CCO2)C1 (stereo partly drawn) [Compound 505] :: 100 to 500 nM
2) Cc1ccc2cc1CNC(=O)[C@H](CCc1ccccc1)NC(=O)[C@@H](NC(=O)[C@@H](C)c1ccccc1)CC(=O)N1CCCC(CCO2)C1 (stereo partly drawn) [Compound 81] :: < 100 nM
3) CC(=O)N[C@H]1CC(=O)N2CCOC(CCOc3ccc(C)c(c3)CNC(=O)[C@H](CCc3ccccc3)NC1=O)C2 (stereo partly drawn) [Compound 258] :: 100 to 500 nM
